Each record here notes measured Selectivity ratio.
Experiment: Selectivity ratio of EC90 for NS5A in HCV genotype 2b to EC90 for NS5A in HCV genotype 1a

| compound | Selectivity ratio |
| --- | --- |
| COC(=O)N[C@H](C(=O)N1CCC[C@H]1c1ncc(-c2ccc3c(c2)cc2n3C(c3ccccc3)Oc3cc(-c4cnc([C@@H]5C[C@@H](F)CN5C(=O)[C@@H](NC(=O)OC)C(C)C)[nH]4)cc(F)c3-2)[nH]1)C(C)C (stereo partly drawn) | 10600 |
| COC(=O)N[C@H](C(=O)N1CCC[C@H]1c1ncc(-c2cc(F)c3c(c2)OC(c2cccc(OC)c2)n2c-3cc3cc(-c4cnc([C@@H]5CCCN5C(=O)[C@@H](NC(=O)OC)C(C)C)[nH]4)ccc32)[nH]1)C(C)C (stereo partly drawn) | 570 |
| COC(=O)N[C@H](C(=O)N1CCC[C@H]1c1ncc(-c2cc(F)c3c(c2)OC(c2ccc4c(c2)OCCC4)n2c-3cc3cc(-c4cnc([C@@H]5C[C@H]6C[C@H]6N5C(=O)[C@@H](NC(=O)OC)C(C)C)[nH]4)ccc32)[nH]1)C(C)C (stereo partly drawn) | 95 |

Data credit: ChEMBL document CHEMBL3853354
